Biological target: EPHA1 (Homo sapiens)
Sequence (P21709 26-976): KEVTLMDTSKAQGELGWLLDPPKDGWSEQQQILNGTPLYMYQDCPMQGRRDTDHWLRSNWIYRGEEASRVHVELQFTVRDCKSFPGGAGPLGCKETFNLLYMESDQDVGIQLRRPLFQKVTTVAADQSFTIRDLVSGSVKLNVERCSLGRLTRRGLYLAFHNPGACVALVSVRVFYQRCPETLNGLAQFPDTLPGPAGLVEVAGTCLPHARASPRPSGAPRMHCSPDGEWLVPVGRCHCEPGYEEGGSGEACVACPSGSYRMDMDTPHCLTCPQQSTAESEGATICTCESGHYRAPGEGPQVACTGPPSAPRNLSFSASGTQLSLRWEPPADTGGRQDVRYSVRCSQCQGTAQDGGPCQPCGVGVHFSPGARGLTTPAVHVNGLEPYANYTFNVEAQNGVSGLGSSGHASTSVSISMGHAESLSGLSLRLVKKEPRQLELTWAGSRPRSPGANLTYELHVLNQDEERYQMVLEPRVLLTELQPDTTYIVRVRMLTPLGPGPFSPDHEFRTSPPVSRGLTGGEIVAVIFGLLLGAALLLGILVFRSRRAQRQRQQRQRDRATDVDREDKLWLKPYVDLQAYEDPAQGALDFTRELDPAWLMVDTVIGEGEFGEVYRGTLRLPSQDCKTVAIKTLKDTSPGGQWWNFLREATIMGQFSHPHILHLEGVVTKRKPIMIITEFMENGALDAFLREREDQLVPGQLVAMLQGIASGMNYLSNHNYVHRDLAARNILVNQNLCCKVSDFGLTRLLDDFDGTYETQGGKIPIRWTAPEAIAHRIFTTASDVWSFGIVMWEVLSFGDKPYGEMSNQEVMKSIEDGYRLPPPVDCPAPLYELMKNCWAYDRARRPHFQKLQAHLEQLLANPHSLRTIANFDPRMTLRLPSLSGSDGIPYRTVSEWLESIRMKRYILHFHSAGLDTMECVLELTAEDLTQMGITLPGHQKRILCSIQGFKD
pIC50: −log10 of the molar value.
Assay readout: pIC50

| Structure notation | Assay readout | Assay value |
| --- | --- | --- |
| COc1cc2c(Oc3ccc(NC(=O)C4(C(=O)Nc5ccc(F)cc5)CC4)cc3)ccnc2cc1OC(=O)N1CCN(C)CC1 | pIC50 | < 6.00 |

###

# IC50 per entry for FMS (Homo sapiens)

| Compound | IC50 |
| --- | --- |
| COc1cc2c(Oc3ccc(NC(=O)C4(C(=O)Nc5ccc(F)cc5)CC4)cc3)ccnc2cc1OC(=O)N1[C@H](C)CN(C)C[C@@H]1C [Compound 6-3] | 0.1 to 1 µM |
| COc1cc2c(Oc3ccc(NC(=O)C4(C(=O)Nc5ccc(F)cc5)CC4)cc3)ccnc2cc1OC(=O)N1CCN(C)[C@H](C)C1 [Compound 2-2] | < 0.1 µM |
| COc1cc2c(Oc3ccc(NC(=O)C4(C(=O)Nc5ccc(F)cc5)CC4)cc3)ccnc2cc1OC(=O)N1CCNCC1(C)C [Compound 6-5] | 0.1 to 1 µM |
| COc1cc2nccc(Oc3ccc(NC(=O)C4(C(=O)Nc5ccc(F)cc5)CC4)cc3)c2cc1OC(=O)N1CCN(C)CC1 [Compound 5-10] | < 0.1 µM |
| COc1cc2c(Oc3ccc(NC(=O)C4(C(=O)Nc5ccc(F)cc5)CC4)cc3)ccnc2cc1OC(=O)N1CCNC[C@H]1C [Compound 6-4] | < 0.1 µM |
| COc1cc2c(Oc3ccc(NC(=O)C4(C(=O)Nc5ccc(F)cc5)CC4)cc3F)ncnc2cc1OC(=O)N1CCN(C)C[C@H]1C [Compound 9-6] | 0.1 to 1 µM |
| COc1cc2nccc(Oc3ccc(NC(=O)C4(C(=O)Nc5ccc(F)cc5)CC4)cc3)c2cc1OC(=O)N1CCN(C)C[C@H]1C [Compound 7-3] | < 0.1 µM |
| COc1cc2nccc(Oc3ccc(NC(=O)C4(C(=O)Nc5ccc(F)cc5)CC4)cc3)c2cc1OC(=O)N1[C@H](C)CN(C)C[C@@H]1C [Compound 7-5] | < 0.1 µM |
| COc1cc2nccc(Oc3ccc(NC(=O)C4(C(=O)Nc5ccc(F)cc5)CC4)cc3)c2cc1OC(=O)N1[C@H](C)CNC[C@@H]1C [Compound 7-4] | < 0.1 µM |
| COc1cc2c(Oc3ccc(NC(=O)C4(C(=O)Nc5ccc(F)cc5)CC4)cc3F)ncnc2cc1OC(=O)N1CCNC[C@H]1C [Compound 9-5] | 0.1 to 1 µM |
| COc1cc2c(Oc3ccc(NC(=O)C4(C(=O)Nc5ccc(F)cc5)CC4)cc3)ccnc2cc1OC(=O)N1CCN(C)[C@@H](C)C1 [Compound 2-3] | < 0.1 µM |
| COc1cc2c(Oc3ccc(NC(=O)C4(C(=O)Nc5ccc(F)cc5)CC4)cc3)ccnc2cc1OC(=O)N(C)C [Compound 1-15] | 0.1 to 1 µM |
| COc1cc2nccc(Oc3ccc(NC(=O)C4(C(=O)Nc5ccc(F)cc5)CC4)cc3)c2cc1OC(=O)N1CCNC[C@H]1C [Compound 7-2] | < 0.1 µM |
| COc1cc2c(Oc3ccc(NC(=O)C4(C(=O)Nc5ccc(F)cc5)CC4)cc3)ccnc2cc1OC(=O)N1C[C@@H]2C[C@H]1CN2C [Compound 2-7] | < 0.1 µM |
| COc1cc2c(Oc3ccc(NC(=O)C4(C(=O)Nc5ccc(F)cc5)CC4)cc3)ccnc2cc1OC(=O)N1CCN(C)C[C@@H]1C [Compound 1-12] | 0.1 to 1 µM |
| COc1cc2c(Oc3ccc(NC(=O)C4(C(=O)Nc5ccc(F)cc5)CC4)cc3F)ccnc2cc1OC(=O)N1CCN(C)C[C@H]1C [Compound 3-5] | 0.1 to 1 µM |
| COc1cc2c(Oc3ccc(NC(=O)C4(C(=O)Nc5ccc(F)cc5)CC4)cc3)ccnc2cc1OC(=O)N1CCN(C)CC1(C)C [Compound 6-6] | 0.1 to 1 µM |
| COc1cc2c(Oc3ccc(NC(=O)C4(C(=O)Nc5ccc(F)cc5)CC4)cc3F)ccnc2cc1OC(=O)N1CCN(C)C[C@@H]1C [Compound 3-6] | 0.1 to 1 µM |

###

Molecular target: KDR/VEGFR2 (Homo sapiens)
Sequence (P35968 20-1356): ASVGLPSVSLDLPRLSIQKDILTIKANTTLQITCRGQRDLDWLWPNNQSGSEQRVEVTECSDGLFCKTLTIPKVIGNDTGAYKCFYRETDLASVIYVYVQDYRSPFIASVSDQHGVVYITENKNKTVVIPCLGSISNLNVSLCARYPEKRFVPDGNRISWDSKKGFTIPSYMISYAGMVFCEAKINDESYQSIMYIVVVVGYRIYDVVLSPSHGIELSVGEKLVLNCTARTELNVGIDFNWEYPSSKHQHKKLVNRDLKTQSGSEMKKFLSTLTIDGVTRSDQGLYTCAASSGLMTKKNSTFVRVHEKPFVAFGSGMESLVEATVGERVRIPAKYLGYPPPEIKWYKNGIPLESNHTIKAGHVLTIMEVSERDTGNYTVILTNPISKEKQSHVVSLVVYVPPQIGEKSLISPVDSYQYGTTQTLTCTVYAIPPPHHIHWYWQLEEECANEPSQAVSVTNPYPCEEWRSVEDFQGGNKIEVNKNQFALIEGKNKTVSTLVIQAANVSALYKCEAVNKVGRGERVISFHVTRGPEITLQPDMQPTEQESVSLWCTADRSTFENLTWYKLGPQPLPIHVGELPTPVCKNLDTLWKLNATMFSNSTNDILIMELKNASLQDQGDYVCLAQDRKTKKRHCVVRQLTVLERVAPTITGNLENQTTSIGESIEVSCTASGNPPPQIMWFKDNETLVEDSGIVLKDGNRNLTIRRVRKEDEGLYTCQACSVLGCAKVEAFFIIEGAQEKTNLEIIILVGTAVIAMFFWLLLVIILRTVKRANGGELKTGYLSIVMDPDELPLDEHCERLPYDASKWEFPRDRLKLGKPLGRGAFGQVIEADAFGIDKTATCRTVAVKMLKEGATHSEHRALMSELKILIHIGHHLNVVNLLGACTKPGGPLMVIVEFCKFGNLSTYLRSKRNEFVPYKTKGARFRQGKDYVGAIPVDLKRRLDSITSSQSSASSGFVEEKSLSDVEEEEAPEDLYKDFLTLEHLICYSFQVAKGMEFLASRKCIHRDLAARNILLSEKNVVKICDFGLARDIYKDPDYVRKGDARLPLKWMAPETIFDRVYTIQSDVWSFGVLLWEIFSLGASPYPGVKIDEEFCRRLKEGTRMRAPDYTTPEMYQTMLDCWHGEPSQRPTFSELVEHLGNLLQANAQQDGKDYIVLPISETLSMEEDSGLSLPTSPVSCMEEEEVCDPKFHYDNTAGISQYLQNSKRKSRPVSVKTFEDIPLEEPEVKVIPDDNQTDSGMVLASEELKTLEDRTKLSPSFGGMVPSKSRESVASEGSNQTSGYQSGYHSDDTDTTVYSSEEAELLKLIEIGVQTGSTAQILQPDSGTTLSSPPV
Assay: HotSpot Kinase Assay, KDR/VEGFR2

| Molecule | Target entity | IC50 |
| --- | --- | --- |
| COc1cc2c(Oc3ccc(NC(=O)C4(C(=O)Nc5ccc(F)cc5)CC4)cc3)ccnc2cc1OC(=O)N1CCOCC1 [Compound 1-17] | KDR/VEGFR2 (Homo sapiens) | 100 to 1000 nM |
| COc1cc2c(Oc3ccc(NC(=O)C4(C(=O)Nc5ccc(F)cc5)CC4)cc3)ccnc2cc1OC(=O)N(C)C [Compound 1-15] | KDR/VEGFR2 (Homo sapiens) | > 1000 nM |
| COc1cc2c(Oc3ccc(NC(=O)C4(C(=O)Nc5ccc(F)cc5)CC4)cc3)ccnc2cc1OC(=O)N1C[C@H]2C[C@@H]1CN2C [Compound 2-6] | KDR/VEGFR2 (Homo sapiens) | 100 to 1000 nM |
| COc1cc2c(Oc3ccc(NC(=O)C4(C(=O)Nc5ccc(F)cc5)CC4)cc3)ccnc2cc1OC(=O)N1CCCC1 [Compound 1-14] | KDR/VEGFR2 (Homo sapiens) | > 1000 nM |
| COc1cc2nccc(Oc3ccc(NC(=O)C4(C(=O)Nc5ccc(F)cc5)CC4)cc3)c2cc1OC(=O)N1CCN(C)CC1(C)C [Compound 7-7] | KDR/VEGFR2 (Homo sapiens) | 100 to 1000 nM |
| COc1cc2c(Oc3ccc(NC(=O)C4(C(=O)Nc5ccc(F)cc5)CC4)cc3F)ccnc2cc1OC(=O)N1CCN(C)C[C@@H]1C [Compound 3-6] | KDR/VEGFR2 (Homo sapiens) | 100 to 1000 nM |

###

Molecular target: EPHB4 (Homo sapiens, UniProt P54760)
Sequence (P54760 16-987): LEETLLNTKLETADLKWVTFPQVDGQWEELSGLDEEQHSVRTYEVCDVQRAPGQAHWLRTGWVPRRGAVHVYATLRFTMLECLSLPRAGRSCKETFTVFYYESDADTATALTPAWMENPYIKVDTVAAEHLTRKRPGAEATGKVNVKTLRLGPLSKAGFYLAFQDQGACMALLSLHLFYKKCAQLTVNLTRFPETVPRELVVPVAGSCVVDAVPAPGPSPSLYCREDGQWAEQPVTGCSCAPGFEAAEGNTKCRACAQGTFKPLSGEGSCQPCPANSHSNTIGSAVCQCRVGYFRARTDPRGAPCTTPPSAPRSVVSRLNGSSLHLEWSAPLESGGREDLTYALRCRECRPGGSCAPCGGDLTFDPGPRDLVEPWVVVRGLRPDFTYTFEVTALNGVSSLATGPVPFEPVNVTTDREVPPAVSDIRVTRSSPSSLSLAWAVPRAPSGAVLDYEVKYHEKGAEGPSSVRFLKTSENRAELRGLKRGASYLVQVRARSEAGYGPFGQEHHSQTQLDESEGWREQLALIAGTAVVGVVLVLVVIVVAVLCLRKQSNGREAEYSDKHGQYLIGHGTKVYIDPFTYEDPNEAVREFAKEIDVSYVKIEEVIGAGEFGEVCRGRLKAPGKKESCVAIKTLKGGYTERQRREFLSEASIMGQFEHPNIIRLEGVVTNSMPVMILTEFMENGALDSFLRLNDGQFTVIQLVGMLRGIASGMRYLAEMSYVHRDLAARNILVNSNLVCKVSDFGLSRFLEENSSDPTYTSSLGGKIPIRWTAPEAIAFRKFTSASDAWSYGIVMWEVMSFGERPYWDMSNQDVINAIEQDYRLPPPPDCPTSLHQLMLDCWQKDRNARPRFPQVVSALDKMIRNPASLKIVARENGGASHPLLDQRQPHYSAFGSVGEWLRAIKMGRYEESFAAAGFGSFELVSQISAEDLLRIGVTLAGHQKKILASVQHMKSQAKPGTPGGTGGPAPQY
pIC50: −log10 of the molar value.

| Compound | pIC50 |
| --- | --- |
| COc1cc2c(Oc3ccc(NC(=O)C4(C(=O)Nc5ccc(F)cc5)CC4)cc3)ccnc2cc1OC(=O)N1CCN(C)CC1 [Compound 1-10] | 6.00 to 7.00 |
